Target: human DGKα (Homo sapiens)
Construct: TVMV protease cleavage site (C); Hexa-His (C); made in house; host or cells: Sf9 insect cells (baculovirus, Bac-to-Bac)
Experiment: DGKα LIPGLO assay (extruded liposome substrate), in vitro DGK inhibition
Format: biochemical
Details: liposome (LIPGLO) assay; read-out: DGKa LIPGLO IC50
pIC50: −log10 of the molar value.
Outcome measure: pIC50

CCC(c1ccc(OC(C)(C)C)cc1)N1C[C@H](C)N(c2cc(=O)n(C)c3ccc(C#N)nc23)C[C@H]1C (single isomer, unassigned) [Example 1444] ... 5.00
C[C@@H]1CN(c2cc(=O)n(C)c3ccc(C#N)nc23)[C@@H](C)CN1C(c1ccc(F)cc1)c1cccc2ccnn12 (single isomer, unassigned) [Example 695] ... 4.92
Cc1ncc(C(c2ccc(Cl)cc2)N2CCN(c3c(C#N)c(=O)n(C)c4ccc(C#N)nc34)C[C@H]2C)cn1 (single isomer, unassigned) [Example 413] ... 4.92

###

Target: human DGKζ (Homo sapiens, UniProt Q13574)
Construct: TVMV protease cleavage site (C); Hexa-His (C); made in house; host or cells: Sf9 insect cells (baculovirus, Bac-to-Bac)
Sequence (Q13574 with tags, fused parts or gaps isoform Q13574-4): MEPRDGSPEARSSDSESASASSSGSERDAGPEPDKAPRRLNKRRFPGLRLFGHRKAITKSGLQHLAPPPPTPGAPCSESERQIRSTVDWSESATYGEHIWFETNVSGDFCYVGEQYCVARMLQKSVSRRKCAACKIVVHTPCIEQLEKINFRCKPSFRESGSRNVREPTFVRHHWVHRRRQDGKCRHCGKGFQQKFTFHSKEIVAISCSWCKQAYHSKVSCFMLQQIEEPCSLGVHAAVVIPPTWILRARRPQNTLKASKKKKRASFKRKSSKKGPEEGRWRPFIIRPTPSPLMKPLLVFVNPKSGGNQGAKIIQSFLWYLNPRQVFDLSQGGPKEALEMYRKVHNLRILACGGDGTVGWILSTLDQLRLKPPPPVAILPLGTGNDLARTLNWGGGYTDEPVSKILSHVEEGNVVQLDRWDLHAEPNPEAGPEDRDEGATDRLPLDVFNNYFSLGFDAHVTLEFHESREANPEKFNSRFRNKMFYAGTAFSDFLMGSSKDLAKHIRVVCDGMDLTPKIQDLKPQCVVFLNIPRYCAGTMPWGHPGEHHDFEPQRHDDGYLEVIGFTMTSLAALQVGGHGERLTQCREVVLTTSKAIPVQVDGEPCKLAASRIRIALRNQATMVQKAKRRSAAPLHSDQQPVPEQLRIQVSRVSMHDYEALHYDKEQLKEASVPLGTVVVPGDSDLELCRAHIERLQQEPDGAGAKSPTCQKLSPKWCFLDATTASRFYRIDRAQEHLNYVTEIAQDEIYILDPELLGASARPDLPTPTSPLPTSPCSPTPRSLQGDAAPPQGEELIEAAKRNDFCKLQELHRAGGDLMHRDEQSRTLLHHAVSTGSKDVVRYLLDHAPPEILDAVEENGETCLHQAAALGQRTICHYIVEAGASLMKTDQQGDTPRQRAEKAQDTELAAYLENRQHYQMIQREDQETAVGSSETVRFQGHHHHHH
Assay: DGKζ LIPGLO assay (extruded liposome substrate), in vitro DGK inhibition
Type: biochemical
Conditions: liposome (LIPGLO) assay; read-out: DGKz LIPGLO IC50
Outcome measure: IC50 (µM)

Cc1ccc(CCN2C[C@H](C)N(c3cc(=O)n(C)c4ccc(C#N)nc34)C[C@H]2C)cc1 ... 10
COC(=O)C1CN(C(c2ccc(F)cc2)c2ccc(F)cc2)CCN1c1cc(=O)n(C)c2ccc(C#N)nc12 (single isomer, unassigned) [Example 136] ... 39

A = COCC(c1ccc(F)cc1)N1C[C@H](C)N(c2cc(=O)n(C)c3ccc(C#N)nc23)C[C@H]1C (single isomer, unassigned) [Example 560]
B = CC[C@@H]1CN(c2cc(=O)n(C)c3ccc(C#N)nc23)[C@@H](C)CN1C(C)c1ccc(Cl)cc1F (single isomer, unassigned) [Example 1353]
# input Hi there, can you help? I need to know whether A or B has lower measured IC50. Please identify the chosen entry by its label.
# output B

###

Biological target: human DGKζ (Homo sapiens)
Construct: TVMV protease cleavage site (C); Hexa-His (C); made in house; host or cells: Sf9 insect cells (baculovirus, Bac-to-Bac)
Test: DGKζ LIPGLO assay (extruded liposome substrate), in vitro DGK inhibition
Assay type: biochemical
Conditions: liposome (LIPGLO) assay; read-out: DGKz LIPGLO IC50
pIC50: −log10 of the molar value.
Outcome measure: pIC50

Cc1ccc(C(c2cccc(Cl)c2)N2C[C@H](C)N(c3cc(=O)n(C)c4ccc(C#N)nc34)C[C@H]2C)nc1 (single isomer, unassigned) [Example 369] ... 5.85

P = C[C@@H]1CN(c2cc(=O)n(C)c3ccc(C#N)nc23)[C@@H](C)CN1Cc1cccc2c1cnn2C
Q = C[C@@H]1CN(c2c(F)c(=O)n(C)c3ccc(C#N)nc23)[C@@H](C)CN1C(c1ccc(F)cc1)c1ccccc1F (stereo partly shown) [Example 334]
R = CC[C@@H]1CN(c2cc(=O)n(C)c3ccc(C#N)nc23)[C@@H](C)CN1C(c1ccc(OC(F)(F)F)cc1)c1ccccn1 (single isomer, unassigned) [Example 340]
# input Number of compounds to sort: 3. Sort criterion: pIC50, ascending. I'd appreciate it if you listed the labels in the requested order.
# output P, Q, R
(P: 5.70, Q: 6.25, R: 6.66)

###

Biological target: human DGKζ (Homo sapiens)
Construct: TVMV protease cleavage site (C); Hexa-His (C); made in house; host or cells: Sf9 insect cells (baculovirus, Bac-to-Bac)
Assay: DGKζ LIPGLO assay (extruded liposome substrate), in vitro DGK inhibition
Format: biochemical
Details: liposome (LIPGLO) assay; read-out: DGKz LIPGLO IC50
pIC50: −log10 of the molar value.
Outcome measure: pIC50

I = CC[C@@H]1CN(c2cc(=O)n(C)c3ccc(C#N)nc23)[C@@H](C)CN1C(c1cccc(F)c1)c1ccc(F)cn1 (single isomer, unassigned) [Example 1109]
II = CCc1cc(F)ccc1C(c1ccc(F)cc1)N1C[C@H](C)N(c2cc(=O)n(C)c3ccc(OC)nc23)C[C@H]1C (single isomer, unassigned) [Example 234]
# input Hi there, can you help? I need to know whether I or II has lower measured pIC50. Please identify the chosen entry by its label.
# output II
(II: 5.06, I: 6.33)

A = CC[C@@H]1CN(c2cc(=O)n(C)c3ccc(C#N)nc23)[C@@H](C)CN1C(C)c1ccc(OC(F)(F)F)cc1F (single isomer, unassigned) [Example 1096]
B = C[C@@H]1CN(c2cc(=O)n(C)c3ccc(C#N)nc23)[C@@H](C)CN1C(c1ccc(F)cc1)c1nc(C2CN(C)C2)no1 (single isomer, unassigned) [Example 1299]
# input Which one would you say has the larger pIC50 value: A , or B ? Please identify the chosen entry by its label.
# output A

###

Molecular target: human DGKζ (Homo sapiens)
Construct: TVMV protease cleavage site (C); Hexa-His (C); made in house; host or cells: Sf9 insect cells (baculovirus, Bac-to-Bac)
Test: DGKζ LIPGLO assay (extruded liposome substrate), in vitro DGK inhibition
Format: biochemical
Details: DGKζ liposome (LIPGLO) assay; read-out: DGKz LIPGLO IC50
pIC50: −log10 of the molar value.
Outcome measure: pIC50

CCc1ccc(C(c2ccc(F)cc2)N2C[C@H](C)N(c3c(C#N)c(=O)n(C)c4ccc(C#N)nc34)C[C@H]2C)cc1 (single isomer, unassigned) [Example 812] ... 6.29

I = COc1ccc(C(C)N2C[C@H](C)N(c3c(C#N)c(=O)n(C)c4ccc(C#N)nc34)C[C@H]2C)nc1 (single isomer, unassigned) [Example 800]
II = C[C@@H]1CN(c2cc(=O)n(C)c3ccc(C#N)nc23)[C@@H](C)CN1C(c1ccc(F)cc1)c1nnc(C2CC2)s1 (single isomer, unassigned) [Example 775]
III = C[C@@H]1CN(c2cc(=O)n(C)c3ccc(C#N)nc23)[C@@H](C)CN1C(c1ccc(F)cc1)c1nc(C(C)(C)C)co1 (single isomer, unassigned) [Example 779]
# input Number of compounds to sort: 3. Sort criterion: pIC50, ascending. I'd appreciate it if you listed the labels in the requested order.
# output II, I, III

###

Target: human DGKα (Homo sapiens, UniProt P23743)
Construct: TVMV protease cleavage site (C); Hexa-His (C); made in house; host or cells: Sf9 insect cells (baculovirus, Bac-to-Bac)
Sequence (P23743 with tags, fused parts or gaps): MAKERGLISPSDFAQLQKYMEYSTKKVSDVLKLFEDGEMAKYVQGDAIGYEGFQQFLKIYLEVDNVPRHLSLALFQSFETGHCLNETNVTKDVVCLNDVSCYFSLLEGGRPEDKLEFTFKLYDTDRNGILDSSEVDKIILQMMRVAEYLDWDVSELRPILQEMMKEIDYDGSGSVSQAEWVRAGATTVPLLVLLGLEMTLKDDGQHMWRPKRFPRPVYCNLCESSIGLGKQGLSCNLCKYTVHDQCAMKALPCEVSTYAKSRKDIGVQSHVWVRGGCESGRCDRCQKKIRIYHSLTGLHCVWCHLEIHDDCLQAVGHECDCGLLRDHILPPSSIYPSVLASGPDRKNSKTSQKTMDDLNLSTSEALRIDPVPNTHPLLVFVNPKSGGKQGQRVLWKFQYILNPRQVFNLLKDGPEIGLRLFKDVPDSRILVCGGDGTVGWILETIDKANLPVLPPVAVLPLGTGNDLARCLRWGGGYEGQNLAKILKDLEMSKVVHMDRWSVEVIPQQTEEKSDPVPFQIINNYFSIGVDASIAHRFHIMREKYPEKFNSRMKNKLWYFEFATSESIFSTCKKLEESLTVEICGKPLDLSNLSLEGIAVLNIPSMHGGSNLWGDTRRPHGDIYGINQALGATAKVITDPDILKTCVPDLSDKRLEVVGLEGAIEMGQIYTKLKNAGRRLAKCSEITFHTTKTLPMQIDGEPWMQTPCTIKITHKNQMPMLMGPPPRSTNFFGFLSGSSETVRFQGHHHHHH
Experiment: DGKα LIPGLO assay (extruded liposome substrate), in vitro DGK inhibition
Type: biochemical
Conditions: liposome (LIPGLO) assay; read-out: DGKa LIPGLO IC50
pIC50: −log10 of the molar value.
Outcome measure: pIC50

The examples below pair each entry with its known result.
CC[C@H]1CN(C(c2cccc(F)c2)c2ccc(F)cn2)[C@H](CC)CN1c1cc(=O)n(C)c2ccc(C#N)nc12 (single isomer, unassigned) [Example 1042] ... 6.77
C[C@@H]1CN(c2cc(=O)n(C)c3ccc(C#N)nc23)[C@@H](C)CN1C(c1ccc(F)cc1)c1nc(C2CC2)cs1 (single isomer, unassigned) [Example 701] ... 6.68
CC[C@H]1CN(C(c2ccc(F)cc2)c2ncccc2F)[C@H](CC)CN1c1cc(=O)n(C)c2ccc(C#N)nc12 (single isomer, unassigned) [Example 1037] ... 7.31
Cn1c(=O)cc(N2CCN(C(c3ccc(F)cc3)c3ccc(F)cc3)CC2c2ccccc2)c2nc(C#N)ccc21 (single isomer, unassigned) [Example 156] ... 5.07
CC[C@H]1CN(C(c2ccc(F)cc2)c2ccc(C#N)cc2)[C@H](C)CN1c1cc(=O)n(C)c2ccc(C#N)nc12 (stereo partly shown) [Example 1123] ... 5.92
Cc1ccc(C(c2ccc(Cl)cc2)N2C[C@H](C)N(c3cc(=O)n(C)c4ccc(C#N)nc34)C[C@H]2C)nc1 (single isomer, unassigned) [Example 213] ... 6.44
Cc1cccc(C(c2ccc(Cl)cc2)N2C[C@H](C)N(c3cc(=O)n(C)c4ccc(C#N)nc34)C[C@H]2C)n1 (single isomer, unassigned) ... 5.85
C[C@@H]1CN(c2cc(=O)n(C)c3ccc(C#N)nc23)[C@@H](C)CN1Cc1ccc(OC(F)(F)F)c(C#N)c1 ... 5.23

a = CC(c1ccc(OC(F)(F)F)cc1)N1C[C@H](CO)N(c2cc(=O)n(C)c3ccc(C#N)nc23)C[C@H]1C (single isomer, unassigned) [Example 1419]
b = C[C@H]1CN(C(c2ccc(Cl)cc2)c2ccc(Cl)cc2)[C@H](CO)CN1c1cc(=O)n(C)c2ccc(C#N)nc12
# input Hi there, can you help? I need to know whether a or b has lower measured pIC50. Please identify the chosen entry by its label.
# output b
(b: 5.13, a: 7.12)

a = C[C@@H]1CN(c2cc(=O)n(C)c3ccc(C#N)nc23)[C@@H](C)CN1C(c1ccc(F)cc1)c1cccc(C(F)(F)F)n1 (stereo partly shown) [Example 679]
b = C[C@@H]1CN(c2c(C#N)c(=O)n(C)c3ccc(C#N)nc23)CCN1C(c1ccc(Cl)cc1)c1ccncn1 (single isomer, unassigned) [Example 320]
# input Hi there, can you help? I need to know whether a or b has lower measured pIC50. Please identify the chosen entry by its label.
# output b
(b: 5.03, a: 5.27)
